The measurements presented in this section are drawn from patent US6743609B1.

target: linoleate isomerase; conditions: pH optimum of about 7.5; read-out: Ki for oleic acid
pKi: −log10 of the molar value.
recorded-endpoint: pKi

>>> experimental_result("CCCCCCCC/C=C\\CCCCCCCC(=O)O")
"~4.10"
